System: Staphylococcus aureus
Test: Antimicrobial activity against methicillin-susceptible Staphylococcus aureus ATCC 25923 assessed as bacterial growth inhibitions by CLSI protocol based microdilution method
Assay type: functional
READOUT_LABEL: MIC (µg/mL)

> print(dat)
                     structure.smiles.string   val
 1  O=C(O)c1ccc(-n2cc(CNc3cccc(OC(F)(F)F)c3)c(-c3ccc(C(F)(F)F)cc3)n2)cc1  0.78
 2  O=C(O)c1ccc(-n2cc(CNc3cc(Cl)c(F)c(Cl)c3F)c(-c3ccc(C(F)(F)F)cc3)n2)cc1  0.78
 3  O=C(O)c1ccc(-n2cc(CNc3cc(Cl)c(F)c(Cl)c3)c(-c3ccc(C(F)(F)F)cc3)n2)cc1  0.78
 4  O=C(O)c1ccc(-n2cc(CNc3ccc(F)c(F)c3)c(-c3ccc(C(F)(F)F)cc3)n2)cc1  1.56
 5  O=C(O)c1ccc(-n2cc(CNc3cc(Cl)ccc3Cl)c(-c3ccc(C(F)(F)F)cc3)n2)cc1  0.78
 6  O=C(O)c1ccc(-n2cc(CNc3cc(Cl)cc(Cl)c3)c(-c3ccc(C(F)(F)F)cc3)n2)cc1  0.78
 7  O=C(O)c1ccc(-n2cc(CNc3cccc(Cl)c3)c(-c3ccc(C(F)(F)F)cc3)n2)cc1  1.56
 8  O=C(O)c1ccc(-n2cc(CNc3cc(F)c(C(F)(F)F)cc3F)c(-c3ccc(C(F)(F)F)cc3)n2)cc1  0.78
 9  O=C(O)c1ccc(-n2cc(CNc3ccc(C(=O)O)c(C(F)(F)F)c3)c(-c3ccc(C(F)(F)F)cc3)n2)cc1    50
10  O=C(O)c1ccc(-n2cc(CNc3ccc(N4CCOCC4)c(C(F)(F)F)c3)c(-c3ccc(C(F)(F)F)cc3)n2)cc1  0.78
11  O=C(O)c1ccc(-n2cc(CNc3ccc(Br)cc3)c(-c3ccc(C(F)(F)F)cc3)n2)cc1  0.78
12  O=C(O)c1ccc(-n2cc(CNc3cccc(Br)c3)c(-c3ccc(C(F)(F)F)cc3)n2)cc1  0.78
13  O=C(O)c1ccc(-n2cc(CNc3cccc(Cl)c3F)c(-c3ccc(C(F)(F)F)cc3)n2)cc1  1.56
14  NS(=O)(=O)c1ccc(NCc2cn(-c3ccc(C(=O)O)cc3)nc2-c2ccc(C(F)(F)F)cc2)cc1    50
15  O=C(O)c1ccc(-n2cc(CNc3cccc(C(F)(F)F)c3)c(-c3ccc(C(F)(F)F)cc3)n2)cc1  1.56
16  O=C(O)c1ccc(-n2cc(CNc3ccc(Cl)c(Cl)c3F)c(-c3ccc(C(F)(F)F)cc3)n2)cc1  0.78
17  O=C(O)c1ccc(-n2cc(CNc3cc(F)c(F)c(F)c3)c(-c3ccc(C(F)(F)F)cc3)n2)cc1  0.78
